Hello, the source for this data is patent US7056679, in case you need it.

- system-under-test: T1, DGI-2 polypeptide (UniProt Q15004 1-111, limits assumed)
- T1 construct: Soluble recombinant protein coated at 500 ng/well; vector tag of pIVEX2.3-MCS not described for this construct; also called KIAA0101
- T1 sequence (looked up): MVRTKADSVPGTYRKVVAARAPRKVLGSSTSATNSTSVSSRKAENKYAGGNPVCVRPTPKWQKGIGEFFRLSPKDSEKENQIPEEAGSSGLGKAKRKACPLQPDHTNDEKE
- experiment: phage ELISA
readout: DGI-2/LDH (ratio)
Hi! Could you send only the number? It should be in ratio, unit omitted.

binder | units-label | recorded-result
RGSLLLTLPRLSGAVGTAYGAAAGAPVPYPDPLEPRP [DGI-2-20F-PP-B3] | ratio | 3
WAASCFWGHVALGCGRNGQGAAAGAPVPYPDPLEPRP [DGI-2-20R-3-A11] | ratio | 5.7
DGI-2-40F-3-D1044 (peptide) peptide: DRVARLATPTAGTMAAGSLGYERTVGCDSQDWFRCVVEGLAAAGAPVPYPDPLEPRP | ratio | 6.2
SLLCVVCRPVSGGRALGGVPAAAGAPVPYPDPLEPRP [DGI-2-20F-PP-B42] | ratio | 2.5
TIDVARRFGYGWWDLWLDGDAAAGAPVPYPDPLEPRP [DGI-2-20R-3-C3] | ratio | 7

// switching to the query binder
Q) Endpoint output: DGI-2/LDH of EGNWFCAVFRGFCVGDRGPEAAAGAPVPYPDPLEPRP [DGI-2-20R-3-A1] . Value?
A) 6.3
